Fab Binding reference
Biological target: recombinant human ATX beta isoform with N-terminal purification tag (human, UniProt Q13822 49-863)
Assay: ELISA, Fab-His captured by anti-Fd, 5 nM biotinylated human ATX beta

{"BINDER": "Fab F117 (VH H110, VL L103) (Fab, V domains shown, Soluble Fab-His) VH: QVQLVQSGAEVKKPGSSVKVSCKASGGTFSSYAISWVRQAPGQGLEWMGGIIPIFGTANYAQKFQGRVTITADESTSTAYMELSSLRSEDTAVYYCARADANQLSGYLDYWGQGTLVTVSS VL: DIQMTQSPSSLSASVGDRVTITCRASQSIGRSLNWYQQKPGKAPKLLIYAASSLQSGVPSRFSGSGSGTDFTLTISSLQPEDFATYYCQQPFDYPFTFGQGTKVEIK", "Fab Binding": "1.8e+06 relative chemiluminescence units"}
{"BINDER": "Fab F97 (VH H90, VL IFWL124) (Fab, V domains shown, Soluble Fab-His; converted to mAb B18) VH: QVQLVQSGAEVKKPGSSVKVSCKASGGTFSSYAISWVRQAPGQGLEWMGGIIPIFGTANYAQKFQGRVTITADESTSTAYMELSSLRSEDTAVYYCARDASTYGDLDYWGQGTLVTVSS VL: DIQMTQSPSSLSASVGDRVTITCRASQSIDGWLNWYQQKPGKAPKLLIYAASSLQSGVPSRFSGSGSGTDFTLTISSLQPEDFATYYCQQSYSTPLTFGQGTKVEIK", "Fab Binding": "5.8e+06 relative chemiluminescence units"}
{"BINDER": "Fab F71 (VH H2, VL L65) (Fab, V domains shown, Soluble Fab-His) VH: QVQLVQSGAEVKKPGSSVKVSCKASGGTFSSYAISWVRQAPGQGLEWMGGIIPIFGTANYAQKFQGRVTITADESTSTAYMELSSLRSEDTAVYYCARDDLPLGRLDYWGQGTLVTVSS VL: EIVLTQSPATLSLSPGERATLSCRASQSVSDYLAWYQQKPGQAPRLLIYDASNRATGIPARFSGSGSGTDFTLTISSLEPEDFAVYYCQQGSDAPLTFGQGTKVEIK", "Fab Binding": "1.7e+06 relative chemiluminescence units"}
{"BINDER": "Fab F121 (VH H115, VL L106) (Fab, V domains shown, Soluble Fab-His) VH: QVQLVQSGAEVKKPGSSVKVSCKASGGTFSSYAISWVRQAPGQGLEWMGGIIPIFGTANYAQKFQGRVTITADESTSTAYMELSSLRSEDTAVYYCARGDANALYDYFDYWGQGTLVTVSS VL: EIVLTQSPATLSLSPGERATLSCRASQSVSNWLAWYQQKPGQAPRLLIYTASNRATGIPARFSGSGSGTDFTLTISSLEPEDFAVYYCQQRYTAPWTFGQGTKVEIK", "Fab Binding": "1.4e+06 relative chemiluminescence units"}

Next:
binder Fab F128 (VH H127, VL L111) (Fab, V domains shown, Soluble Fab-His) VH: QVQLVQSGAEVKKPGSSVKVSCKASGGTFSSYAISWVRQAPGQGLEWMGGIIPIFGNANYAQKFQGRVTITADESTSTAYMELSSLRSEDTAVYYCARGFVNFSRLDYWGQGTLVTVSS VL: EIVLTQSPGTLSLSPGERATLSCRASQSVSSSYLAWYQQKPGQAPRLLIYGASSRATGIPDRFSGSGSGTDFTLTISRLEPEDFAVYYCQQDSAFPWTFGQGTKVEIK , Fab Binding observed: 1.8e+06 relative chemiluminescence units
